# experiment description: gradient 5% acetonitrile 3 min, to 50% in 2 min, to 85% in 15 min, held 3 min, 100 µL/min
# condition info: column: Zorbax Extend-C18 2.1 x 50 mm; eluents: water / acetonitrile, 0.1% formic acid
measured metric: RP-LC retention time (s)

Ask: Given "COCCn1ccc2c(OCC(=O)N(C(C)C)C(C)C)cccc2c1=O" , state its recorded RP-LC retention time.
Reply: 798

1: CCCC(=O)N1CCCN(C2=NS(=O)(=O)C(c3ccccc3)=C2C)CC1
2: Cc1ccc(C)c(N2CCN(Cc3nc(-c4ccc(N5CCC(C)CC5)nc4)no3)CC2)c1
Ask: Returns the identifier with the smallest measured RP-LC retention time among 1 and 2 . Bench note: the answer is the label of the chosen record.
Reply: 1
